System: 699152-130-R-J1-PDC complex spheroid growth;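 also: compound exposure lasted 7 days after spheroids had grown for 3 days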
procedure.summary: Anticancer human tumor 699152-130-R-J1-PDC patient-derived pancreatic carcinoma cell line growth inhibition [AhR]
recorded.conditions: second compound 0.1 µM; first compound 0.003 µM; hits give low values
Text: Multicellular complex tumor spheroid response to aryl hydrocarbon receptor antagonists in combination with a variety of drugs and investigational agents in selected tumor cell lines […] Compounds. […] If the clinical Cmax for an agent had not been determined, the highest concentration tested was 10 microM (Table 1). […]
One threshold, 90%, splits the recorded viability, T/C values: lower ones are y, equal or higher ones are n.

Is viability, T/C strictly under 90% for the entry CCc1c2c(nc3ccc(O)cc13)-c1cc3c(c(=O)n1C2)COC(=O)[C@]3(O)CC + CC(CO)NC(=O)c1cc(-c2ccc(Cl)cc2)nn(-c2cnn(C)c2)c1=O ? y

In plain terms, does CC(C)CC(NC(=O)C(Cc1ccccc1)NC(=O)c1cnccn1)B(O)O (stereo unspecified) + Cc1cncc(-c2nc(NCCc3c[nH]c4ccccc34)c3ncn(C(C)C)c3n2)c1 come in under 90% for viability, T/C? n

Given the entry CC(C)CC(NC(=O)C(Cc1ccccc1)NC(=O)c1cnccn1)B(O)O (stereo unspecified) + Cc1ccccc1N=Nc1ccc(NC(=O)c2ccnn2C)c(C)c1 , would its reported viability, T/C be below 90%? n

# strict comparison: is reported viability, T/C < 90%? input = CC(C)CC(NC(=O)C(Cc1ccccc1)NC(=O)c1cnccn1)B(O)O (stereo unspecified) + CC(CO)NC(=O)c1cc(-c2ccc(Cl)cc2)nn(-c2cnn(C)c2)c1=O n

viability, T/C strictly < 90% for this compound? Nc1ncn(C2CC(O)C(CO)S2)c(=O)n1 (stereo unspecified) + Cc1cncc(-c2nc(NCCc3c[nH]c4ccccc34)c3ncn(C(C)C)c3n2)c1 n

Cited source for all entries: PubChem BioAssay AID1919001
